Could you please report measured remaining activity at 10 µM for the items listed next?
Biological target: His6-PDK1 (aa 52-556) (Homo sapiens)
Construct: 15 μL His6-PDK1 (aa 52-556) 3.33 ng/well); host or cells: baculovirus-infected insect cells
Sequence (O15530 52-556): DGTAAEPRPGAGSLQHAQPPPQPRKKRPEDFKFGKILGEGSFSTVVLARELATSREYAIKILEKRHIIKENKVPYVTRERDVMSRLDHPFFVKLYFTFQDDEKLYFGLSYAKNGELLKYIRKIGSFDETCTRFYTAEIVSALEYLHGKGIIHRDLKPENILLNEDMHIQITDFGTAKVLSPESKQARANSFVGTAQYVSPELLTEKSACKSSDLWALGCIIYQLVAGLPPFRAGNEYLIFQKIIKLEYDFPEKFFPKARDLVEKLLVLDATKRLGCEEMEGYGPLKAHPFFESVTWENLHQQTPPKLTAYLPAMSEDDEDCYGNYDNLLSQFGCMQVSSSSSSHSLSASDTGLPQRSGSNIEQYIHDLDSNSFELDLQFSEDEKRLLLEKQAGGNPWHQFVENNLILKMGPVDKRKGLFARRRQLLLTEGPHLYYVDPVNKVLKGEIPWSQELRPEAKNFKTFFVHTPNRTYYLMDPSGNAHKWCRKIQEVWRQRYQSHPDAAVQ
Test: PDK1 kinase assay III (with Tween 20)
Type: biochemical
Settings: compound at 10 μM; PDK1 kinase assay III (values without asterisk); read-out: % CTL (residual activity of the enzyme relative to DMSO control)

Molecule: CN1CCC(Nc2ccc(Nc3ncc4cc(/C=C/CNC(=O)c5nccn(Cc6ccc(F)c(F)c6)c5=O)ccc4n3)cc2F)CC1 [IV-50]
remaining activity at 10 µM: 11.6%

Molecule: Cc1c(C(=O)NCC#Cc2ccc3nc(Nc4ccc(C(=O)N(C)CCCN(C)C)cc4)ncc3c2)c(=O)n(Cc2ccc(F)c(F)c2)n1C [III-90]
remaining activity at 10 µM: 13.3%

Now turn to the next molecule.
The molecule listed as Cc1c(C(=O)NC/C=C/c2ccc3nc(Nc4ccc(CN(C)C)cc4)ncc3c2F)c(=O)n(Cc2ccc(F)c(F)c2)n1C [IV-34] has a reported remaining activity at 10 µM of 14.4%

The measured values listed here are drawn from patent US20110313156A1.
